FYI, the data here is from ChEMBL document CHEMBL1201862.

# Tested on: RPMI-8226
# test: NCI tumour cell line growth inhibition, 48 h
The source made the active and inactive calls. No stated cut-off is given here; in the data, active = GI50 up to about 1.1 µM and inactive = higher.
API: response.call in true = active, false = inactive

The examples below pair each entry with its known result.
FC(F)(F)c1cc(N(C2c3ccccc3C=Cc3ccccc32)P(Cl)Cl)cc(C(F)(F)F)c1    false
COc1ccc(-c2cc(=O)c3c(OC)c(OC)c(OC)c(OC)c3o2)cc1OC    false
CN(CCN1C(=O)c2cc([N+](=O)[O-])cc3cc([N+](=O)[O-])cc(c23)C1=O)CCN1C(=O)c2cc([N+](=O)[O-])cc3cc([N+](=O)[O-])cc(c23)C1=O    true

Please look at the following compound next.
Prompt line: Fill in: this test's call for Cn1cc2c(=O)n3ncn(-c4ccc(Br)cc4)c3nc2n1 is ___
Response line: false

---

# Test system: KM12
# test: NCI tumour cell line growth inhibition, 48 h
The source made the active and inactive calls. Rule as the data show it: active = GI50 up to about 1.1 µM and inactive = higher.
Below, each entry is listed with its recorded GI50.

Prompt line: Reported GI50 for CCOC(=O)c1c(-c2ccc(OC)cc2)c(C#N)c(=S)n(C2OC(COC(C)=O)C(OC(C)=O)C(OC(C)=O)C2OC(C)=O)c1-c1ccccc1 (stereo not given) : what is it?
Response line: > 100 µM (inactive)

---

# System: DU-145
# test: NCI tumour cell line growth inhibition, 48 h
Activity calls are given as the source filed them. Cut-off read from the data, not from the text of the source: active = GI50 up to about 1.1 µM and inactive = higher.
readout: GI50

Answered cases to consult:
O=C1CCN2C(=N1)Sc1ccccc12    > 100 µM (inactive)
N#C/C(C(=S)Nc1ccccc1)=C(/N)N1CCCC1    > 100 µM (inactive)
CCOC(=O)CC[C@H](NC(=O)c1ccc(CNc2nc3cc(C(F)(F)F)ccc3nc2C(=O)OCC)cc1)C(=O)OCC    > 81.8 µM (inactive)
O=C1CCC2(CCO1)OCCO2    > 100 µM (inactive)
CCOC(=O)C(=CNC(=S)Nc1c(CC)cccc1CC)C(=O)OCC    > 100 µM (inactive)
C=CC(C)(C)C1(CC(OC)OC)C(=O)N(C)c2ccccc21 (stereo unspecified)    > 25 µM (inactive)
O=C1Nc2ccc(Cl)cc2/C1=C\c1c(Cl)nc2sccn12    73.5 µM (inactive)
Cc1ccc2c(=O)c(-c3nnc(NC4CCCCC4)s3)c[nH]c2n1    > 100 µM (inactive)

Prompt line: Reported GI50 for Cc1cn([C@@H]2O[C@H](CO)[C@@H](O)[C@@H]2O)c(=O)[nH]c1=O : what is it?
Response line: > 1000 µM (inactive)

Prompt line: Reported GI50 for NNC(=O)CC(=O)Nc1ccccc1Cl : what is it?
Response line: > 100 µM (inactive)

Prompt line: Reported GI50 for CC(C)[C@H]1C(=O)O[B@-](F)(c2ccccc2)/[N+]1=C\N(C)C : what is it?
Response line: > 100 µM (inactive)

Prompt line: Reported GI50 for COc1ccc(O)c(/C=N\Nc2ccccc2)c1 : what is it?
Response line: 25.5 µM (inactive)

Prompt line: Reported GI50 for CCOC(=O)C1=C(N2CCCC2)NC(=O)CC1=O : what is it?
Response line: > 100 µM (inactive)

Prompt line: Reported GI50 for Cc1ccc(S(=O)(=O)N/N=C2\CCCCCCCCCCC2CN(C)C)cc1 (stereo unspecified) : what is it?
Response line: 18.5 µM (inactive)

Prompt line: Reported GI50 for CCOC(=O)C(C(=O)OCC)=C1SC(=N\c2ccccc2)/C(=N/c2ccccc2)N1c1ccccc1 : what is it?
Response line: > 100 µM (inactive)

---

# Tested on: SNB-19
# test: NCI tumour cell line growth inhibition, 48 h
Calls of active or inactive are those of the source. Cut-off read from the data, not from the text of the source: active = GI50 up to about 1.1 µM and inactive = higher.
Below, each entry is listed with its recorded GI50.

CN1C(=O)[C@H](c2c[nH]c3ccccc23)[C@H](c2c[nH]c3ccccc23)C1=O    41.4 µM (inactive)
O=[N+]([O-])c1cc2oc(CSc3ccccc3)nc2cc1Cl    45.1 µM (inactive)
COc1cc(C)cc2c1C(=O)C(Br)=CC2=O    16.3 µM (inactive)
O=C(Cc1ccc(F)cc1)NC1=C(Cl)C(=O)c2ccccc2C1=O    5.58 µM (inactive)
CCOC(=O)C1=C(N2CCCC2)NC(=O)CC1=O    > 100 µM (inactive)

Prompt line: Reported GI50 for O=C1c2cc([N+](=O)[O-])sc2C(=O)c2c([N+](=O)[O-])csc21 : what is it?
Response line: 1.63 µM (inactive)

Prompt line: Reported GI50 for CN(Cc1cnc2nc(N)nc(N)c2n1)c1ccc(C(=O)NCCS(=O)(=O)O)cc1 : what is it?
Response line: > 100 µM (inactive)

---

# Test system: M14
# test: NCI tumour cell line growth inhibition, 48 h
The source made the active and inactive calls. No stated cut-off is given here; in the data, active = GI50 up to about 1.1 µM and inactive = higher.
API: response.call in Y = active, N = inactive

The examples below pair each entry with its known result.
CCOC(=O)C12CCCC1(O)N(NC(N)=O)C(C)=C2C(=O)OC (configuration not stated)    N
O=C1c2cc([N+](=O)[O-])sc2C(=O)c2c([N+](=O)[O-])csc21    Y
COc1cc2c(c(O)c1O)-c1ccc(OC)c(=O)cc1C(NC(C)=O)CC2 (configuration not stated)    N
O=C1Nc2ccc(Cl)cc2/C1=C\c1c(Cl)nc2sccn12    N
Cc1n[nH]c(CC#N)n1    N

Prompt line: Fill in: this test's call for COC(=O)c1ccccc1C1CN=NC12Cc1cc(C)cc(C)c1C2=O (configuration not stated) is ___
Response line: N

Prompt line: Fill in: this test's call for Cc1ccc(C2CC(c3cccc([N+](=O)[O-])c3)=Nc3ccccc3S2)cc1 (configuration not stated) is ___
Response line: N

Prompt line: Fill in: this test's call for COc1cc(C2C(Cl)C(=O)N2c2ccc(Br)cc2)cc(I)c1O (configuration not stated) is ___
Response line: N

Prompt line: Fill in: this test's call for O=C(CC(=O)n1nc(-c2ccccc2)c(/N=N/c2ccc([N+](=O)[O-])cc2)c1-c1ccccc1)Nc1ccc(Cl)cc1 is ___
Response line: N

Prompt line: Fill in: this test's call for C=CCN1C(=O)/C(=C/c2ccccc2)NC1=S is ___
Response line: N

Prompt line: Fill in: this test's call for O=C1c2ccccc2C2(c3ccc(Cl)cc3)N[C@@H]3CCCC[C@@H]3N12 (some centres not stated) is ___
Response line: N

Prompt line: Fill in: this test's call for Cc1cccc(/N=C/C=C(\Cl)c2ccc3ccccc3c2)c1 is ___
Response line: N

Prompt line: Fill in: this test's call for CC(C)[C@H]1C(=O)O[B@-](F)(c2ccccc2)/[N+]1=C\N(C)C is ___
Response line: N

Prompt line: Fill in: this test's call for N#C/C(C(=S)Nc1ccccc1)=C(/N)N1CCCC1 is ___
Response line: N

---

Below, each entry is listed with its recorded GI50.
# System: SF-295
# test: NCI tumour cell line growth inhibition, 48 h
The source made the active and inactive calls. Cut-off read from the data, not from the text of the source: active = GI50 up to about 1.1 µM and inactive = higher.

Answered cases to consult:
Cn1c(=S)c2nc(SCCN3CCCC3)[nH]c2n(C)c1=O    > 100 µM (inactive)
CCCC(=O)Oc1ccc(/C=N/NC(N)=S)nc1    > 100 µM (inactive)
CCOC(=O)C(C(O)c1ccc([N+](=O)[O-])cc1)P(=O)(OCC)OCC (configuration not stated)    > 100 µM (inactive)
CC(C)C(OC(=O)c1ccc(NCC2=CC(=O)C=CC2=O)cc1)C(C)C    13.2 µM (inactive)
COc1ccc2[nH]cc(CCNC(=O)[C@](O)(Cc3cn(C)c4ccccc34)[C@@]3(O)OCC(O)C3O)c2c1 (some centres not stated)    > 100 µM (inactive)
CC(C)(C)C(=O)C(Cc1ccccc1)C(=O)C(C)(C)C    > 100 µM (inactive)
Cc1c(N/C=C(\C#N)C(=O)c2ccc(Cl)cc2)c(=O)n(-c2ccccc2)n1C    > 100 µM (inactive)
CCCCCCCC(=O)NC(C)(C)C(=O)NCC(=O)NC(CC(C)C)C(=O)NC(C)(C)C(=O)NCC(=O)NCC(=O)NC(CC(C)C)C(=O)NC(C)(C)C(=O)NCC(=O)NC(C(=O)NC(CO)CC(C)C)C(C)CC (configuration not stated)    4.26 µM (inactive)

Prompt line: Reported GI50 for C=CCN1C(=O)/C(=C/c2ccccc2)NC1=S : what is it?
Response line: > 100 µM (inactive)

Prompt line: Reported GI50 for CCCCCCCCC/C=C1\CCC(CN2CCOCC2)C1=O (configuration not stated) : what is it?
Response line: 7.48 µM (inactive)

Prompt line: Reported GI50 for CC(C)(C)OC(=O)c1ccc(NCc2cc(O)ccc2O)cc1 : what is it?
Response line: 7.41 µM (inactive)

Prompt line: Reported GI50 for CCOc1ccc(NC(=O)/C(=C/c2ccccc2)C(C)=O)cc1 : what is it?
Response line: 13.5 µM (inactive)

Prompt line: Reported GI50 for CCN1C2=NC(=O)N(C)C(=O)C2(Cl)C(C(SC)S(=O)(=O)c2ccc(C)cc2)c2ccccc21 (configuration not stated) : what is it?
Response line: 51.8 µM (inactive)

Prompt line: Reported GI50 for COc1ccc(-c2[nH]c(=O)n(C3OC(CO)C(O)C(O)C3O)c(=O)c2C#N)cc1 (configuration not stated) : what is it?
Response line: > 100 µM (inactive)

Prompt line: Reported GI50 for CC[C@@H](/C=C\CCC(=O)C[C@H](O)CCC=C(C)C)O[Si](C(C)C)(C(C)C)C(C)C : what is it?
Response line: > 100 µM (inactive)

Prompt line: Reported GI50 for CCC(=O)NC(Nc1cccc(F)c1)(C(F)(F)F)C(F)(F)F : what is it?
Response line: > 100 µM (inactive)
